- SYSTEM_UNDER_TEST: Src SH2 domain, monomeric, cleaved from GST (human, UniProt P12931 151-248)
- TEST_METHOD_NOTES: fluorescence polarisation
pKd: −log10 of the molar value. Non-standard residues stand in square brackets, D forms with d. No end group written: not given here. Flu = 5-carboxyfluorescein, coupled after removal of the final Fmoc group; pY = N[C@@H](Cc1ccc(OP(=O)(O)O)cc1)C(=O)O
MEASUREMENT_NAME: pKd

Inquiry: Query: pKd; subject: Flu-EDDT[pY]DGYE [fluoresceinated cortactin phospho-Y482 peptide]
Reply text: < 5.30
